- system_tested: T1, Soluble CTLA-4-Ig (human, UniProt P16410 36-161, FITC-conjugated in the two-colour FACS assays; unlabelled and detected with FITC goat anti-human IgG in the concentration-dependent assay)
- T1 construct: extracellular domain; Bought from R&D Systems; also called sCTLA-4-Ig; CTLA-4-Ig Fc; not shown: Fc portion of human IgG1
- experimental_protocol: two-colour FACS profile on transfected cells; score of preference for CTLA-4-Ig over CD28-Ig vs WT hB7-1
metric: Binding Score
Please reply with the number alone, leaving off any unit.

Looking up Round 2 CTLA4BP-5x5-2e (ligand) VIHVTKEVKEVATLSCGLNVSVEELAQTRIHWQKEKKMVLTMMSGDMNIWPEYKNRTIFDITNNLSIVILALRPSDEGTYECVVLKYEKDAFKREHLAEVMLSVKADFPTPSISDFEIPPSNIRRIICSTSGGFPEPHLSWLENGEELNAINTTVSQDPETELYAVSSKLDFNMTTNHSFMCLIKYGHLRVNQTFNWNTPKQEHFPDNLLPSWAITLISVNGIFVICCLTYCFAPRCRERRRNETLRRESVRPV , I found its Binding Score recorded as 2

Entry Round 2 CTLA4BP-5x6-9d (ligand) VIHVTKEVKEVATLSCGHNVSVEELAQTRIHWQKEKKMVLTMMSGDMNIWPEYKNRTIFDITNNLSIVILALRPSDEGTYECVVLKYEKDAFKREHLAEVMLSVKADFPTPSISDFEIPTSNIRRIICSTSGGFPEPHLSWLENGEELNAINTTVSQDPETELYTVSSKLDFNMTANHSFVCLIKYGHLRVNQTFNWNTPKQEHFPDNLLPSWAITLISVNGIFVICCLTYCFAPRCRERRRNERLRRESVRPV — recorded Binding Score = 2

// Round 2 CTLA4BP-5x4-12c (ligand, Full-length clone on transiently or stably transfected 293 cells; The end 288 is the end of the entry as counted; also called R2 CTLA-4BP 5x4-12c; clone 12c) VIHVTKEVKEVATLSCGHNVSVEELAQTRIHWQKEKKMVLTMMSGDMNIWPEYKNRTIFDITNNLSIVILALRPSDEGTYECVVLKYEKDAFKREHLAEVMLSVKADFPTPSISDFEIPPSNIRRIICSTSGGFPEPHLFWLENGEELNAINTTVSQDPETELYTVSSKLDFNMTTNHSFMCLIKYGHLRVNQTFNWNTPKQEHFPDNLLPSWAITLISANGIFVICCLTYRFAPRCRERKSNETLRRESVRPV : Binding Score value = 2
